# Tested on: Fibroblast
# testProtocol: Incucyte cell viability with human fibroblast; further: unitless GR value; below 1 slowed growth and below 0 cell loss
# Type: toxicity, cell-based
# condition: 18 h, 10 µM, compound concentration 10 uM, replicate number 2
// boundary case: Growth Rate equal to 0.7 maps to false; strictly smaller maps to true

{"compound": "C=C(C)[C@H]1CN[C@H](C(=O)O)[C@H]1CC(=O)O", "targetEntity": "Fibroblast", "categoryLabel": "false"}
{"compound": "CSc1ccc(C[C@@H](C)C(=O)O)cc1Nc1nc(N2CC[C@H](N(C)C)C2)cc(C(F)F)c1C#N.O=C(O)C(F)(F)F", "targetEntity": "Fibroblast", "categoryLabel": "false"}
{"compound": "CC(C)c1cnc(NC(=O)Cc2ccccc2)s1", "targetEntity": "Fibroblast", "categoryLabel": "false"}

Below 0.7 on Growth Rate? Entry Cl.Clc1ccc(OC[C@H]2CCN2)cn1
false

Below 0.7 on Growth Rate? Entry Cc1cn([C@@H](C)CC#N)c(=O)c2cc(Cn3nc(C(F)F)cc3Cl)nn12
false

Below 0.7 on Growth Rate? Entry O=C(NCc1cccnc1OCC(F)(F)F)c1cncc(-c2ccc(Cl)cc2)c1
false

Below 0.7 on Growth Rate? Entry Cn1cc(-c2ccc(N(C(=O)NCc3ccccc3)[C@H]3CC[C@H](Nc4ccc(C#N)cn4)CC3)cc2)ccc1=O
true

Below 0.7 on Growth Rate? Entry Cc1nnc2n1-c1sc3c(c1C(c1ccccc1Cl)=NC2)C[C@H](C(=O)N1CCOCC1)C3
true

Below 0.7 on Growth Rate? Entry CCN(CC)CCO[C@H]1CC[C@@]2(C)C(=CC[C@@H]3[C@@H]2CC[C@]2(C)C(=O)CC[C@@H]32)C1.Cl
true

Below 0.7 on Growth Rate? Entry CCOC(=O)N1CCC(c2cc(O)n3nc(C)c(-c4ccc(F)cc4)c3n2)CC1
false

Below 0.7 on Growth Rate? Entry O=C(N[C@H]1CN2CCC1CC2)c1ccc(Cl)cc1
false

Below 0.7 on Growth Rate? Entry COc1cc(-c2cncc(-c3ccc(N4CCN(C(C)C)CC4)cc3)c2C)cc(F)c1C(=O)N1CCCC1
true

Below 0.7 on Growth Rate? Entry Cc1nnsc1C(=O)Nc1ccc(-n2nc(C(F)(F)F)cc2C(F)(F)F)cc1
false

Below 0.7 on Growth Rate? Entry FC(F)(F)c1ccc(CNc2ccc(Cc3c[nH]c4ncc(Cl)cc34)cn2)cn1
false

Below 0.7 on Growth Rate? Entry O=C(NNC(=O)c1ccc(CNS(=O)(=O)c2ccc(F)c(Cl)c2)cc1)c1ccccc1
false

Below 0.7 on Growth Rate? Entry Cc1cc(NC(=O)c2cccc(NC(=O)/C=C/CN(C)C)c2)ccc1Nc1nccc(-c2cccnc2)n1
true

Below 0.7 on Growth Rate? Entry Cc1nc2ccc(Cl)cc2c(-c2ccccc2)c1CC(=O)O.Cl
false

Below 0.7 on Growth Rate? Entry Cc1cc(Cn2c(N3CC4(CNC4)C3)nc3c(N4CCN(C)CC4)cc(Cl)cc32)cc(C)c1F
true

----------
# Tested on: HEK-293T
# testProtocol: Incucyte cell viability with HEK293T; further: unitless GR value; below 1 slowed growth and below 0 cell loss
# Assay type: toxicity, cell-based
# condition: human, 0 h, 10 µM, compound concentration 10 uM, replicate number 2
measuredProperty: Growth Rate

Look over these answered cases.
{"molecule": "[2H]C([2H])([2H])NC(=O)c1nnc(NC(=O)C2CC2)cc1Nc1cccc(-c2ncn(C)n2)c1OC [DEUCRAVACITINIB]", "targetEntity": "HEK-293T", "Growth Rate": 0.09}
{"molecule": "Cc1cc(OC2CCS(=O)(=O)CC2)cc(C)c1-c1cccc(COc2ccc(C(=O)O)c(F)c2)c1", "targetEntity": "HEK-293T", "Growth Rate": 0.65}
{"molecule": "O=C(O)C(F)(F)F.O=C1NC(=O)/C(=C/c2c[nH]c(=O)c(-c3ccc(N4CCNCC4)nc3)c2)S1", "targetEntity": "HEK-293T", "Growth Rate": 0.87}
{"molecule": "COc1cc(-c2cc3ncccc3c(OC[C@H]3CNC(=O)C3)n2)cc(OC)c1OC1CCOCC1.O=C(O)C(F)(F)F", "targetEntity": "HEK-293T", "Growth Rate": 0.5}
{"molecule": "CN(C)CCC[C@@]1(c2ccc(F)cc2)OCc2cc(C#N)ccc21 [ESCITALOPRAM]", "targetEntity": "HEK-293T", "Growth Rate": 0.57}

From here, focus on the item given below.
Entry COCc1nc2cnc3cc(-c4c(C)noc4C)c(OC[C@H]4CCNC4)cc3c2n1[C@H](C)c1ccccc1 [GSK778] has what Growth Rate?
0.24

----------
# System: Fibroblast
# testProtocol: Incucyte cell viability with human fibroblast; further: unitless GR value; below 1 slowed growth and below 0 cell loss
# Assay type: toxicity, cell-based
# condition: 6 h, 10 µM, compound concentration 10 uM, replicate number 2
Just so you know, the groups by Growth Rate go like this: small value = under -0.7, mid value = from -0.7 up to 0.08, large value = 0.08 and over

Below, 2 compounds whose answers are already recorded.
{"compound": "COc1cc(NC(=O)c2ccc(-c3ccc(Cl)cc3)o2)cc(OC)c1", "targetEntity": "Fibroblast", "categoryLabel": "small value"}
{"compound": "CCOC(=O)/N=C(\\N)c1ccc(OCc2cccc(COc3ccc(C(C)(C)c4ccc(OC(=O)OCC)cc4)cc3)c2)cc1", "targetEntity": "Fibroblast", "categoryLabel": "mid value"}

Which bin should I file COc1cc(N2CCC(N3CCN(C)CC3)CC2)ccc1Nc1ncc(Cl)c(Nc2ccccc2S(=O)(=O)C(C)C)n1 under?
small value

Which bin should I file COCc1nc2cnc3cc(-c4c(C)noc4C)c(OC[C@H]4CCNC4)cc3c2n1[C@H](C)c1ccccc1 under?
mid value

Which bin should I file COc1ccc(OC)c(-c2ccc(NC(=O)c3ccncc3F)cc2)c1 under?
small value

----------
Measured Growth Rate, listed per entry for reference.
# Tested on: U2OS
# testProtocol: Incucyte cell viability with U2OS; further: unitless GR value; below 1 slowed growth and below 0 cell loss
# Type: toxicity, cell-based
# condition: human, 18 h, 10 µM, compound concentration 10 uM, replicate number 2
// no unit, no text: just the number

{"compound": "Cn1cnc(Cn2ccc3ccc(CNCc4[nH]c5ccccc5c4[C@H]4NC(=O)c5ccc(O)cc54)cc32)c1", "Growth Rate": 0.67}
{"compound": "CC(=O)Nc1nc2c(Oc3cc(-c4ccc(C(F)(F)F)cc4)ncn3)cccc2s1 [AMG-517]", "Growth Rate": 0.91}
{"compound": "CO[C@H](C)CN1CC[C@]2(C)c3cccc(O)c3C[C@H]1C2(C)C.Cl", "Growth Rate": 0.84}
{"compound": "Cc1ccc2c(NS(=O)(=O)c3ccccc3Cl)cccc2c1Oc1ncccc1-c1ccnc(N[C@H]2CCCNC2)n1.Cl", "Growth Rate": 0.57}
{"compound": "COc1cc(F)ccc1-c1ncnc(Nc2cccc(C[S@](C)(=N)=O)c2)n1 [ATUVECICLIB]", "Growth Rate": 0.07}
{"compound": "C=C[C@H]1C[N@@]2CC[C@H]1C[C@@H]2[C@@H](O)c1ccnc2ccc(OC)cc12 [QUINIDINE]", "Growth Rate": 0.73}

Entry Cc1cc(O)c(-c2ccc([C@@H](C)CN(C)C)cc2)c2c1[nH]c(=O)c1sccc12 has what Growth Rate?
0.08

Entry CC(=O)c1c(C)c2cnc(Nc3ccn(C)n3)nc2n(C2CCCC2)c1=O has what Growth Rate?
0.92

Entry CCn1cnc2c(-c3ccc(F)c(-c4ccc(S(=O)(=O)CC)cc4OC)c3)cnnc21 [DARIGABAT] has what Growth Rate?
-0.24

Entry O=c1cc(-c2ccccc2)oc2c1ccc1ccccc12 [ALPHA-NAPHTHOFLAVONE] has what Growth Rate?
0.66

----------
Measured Growth Rate, listed per entry for reference.
# Tested on: U2OS
# testProtocol: Incucyte cell viability with U2OS; further: unitless GR value; below 1 slowed growth and below 0 cell loss
# Assay type: toxicity, cell-based
# condition: human, 6 h, 10 µM, compound concentration 10 uM, replicate number 1
// no unit, no text: just the number

Look over these answered cases.
{"compound": "CC(C)C[C@H](NC(=O)c1cc2ccccc2s1)C(=O)N1CCN(C(=O)[C@H](CO)NS(=O)(=O)c2ccc(Cl)cc2Cl)CC1", "targetEntity": "U2OS", "value": 0.27}
{"compound": "Cn1c(=O)n(CCCO)c(=O)c2c1nc(Oc1cccc(Cl)c1)n2Cc1ccc(Cl)cc1", "targetEntity": "U2OS", "value": 0.38}
{"compound": "O=S1(=O)NCN(C2CC2)c2ccc(F)cc21", "targetEntity": "U2OS", "value": 0.68}
{"compound": "CCOC(=O)/N=C(\\N)c1ccc(OCc2cccc(COc3ccc(C(C)(C)c4ccc(OC(=O)OCC)cc4)cc3)c2)cc1", "targetEntity": "U2OS", "value": 0.84}
{"compound": "Cc1cc(=O)oc2cc(NC(=O)[C@H](Cc3ccc(I)cc3)NC(=O)[C@H]3N[C@@H]4CC[C@H]3C4)ccc12.O=C(O)C(F)(F)F", "targetEntity": "U2OS", "value": 0.26}
{"compound": "COc1cc(-c2cc3ncccc3c(O[C@@H](C)[C@H]3CNC(=O)C3)n2)cc(OC)c1OC", "targetEntity": "U2OS", "value": 0.94}

Entry O=c1cc(-c2cc(F)c(Cl)nc2Cl)[nH]c2c(-c3ccccc3)c(C(F)(F)F)nn12 has what Growth Rate?
0.78

Entry CCNc1ccc(-c2nn(-c3ccccc3C)c3c2C(C)Cc2nc(NC(=O)OC)sc2-3)cn1.O=C(O)C(F)(F)F (centres undefined) has what Growth Rate?
0.5

Entry COc1cc(Oc2nc(-c3ccc(NC(=O)C4CCOC4)cc3)nn3c(C)nc(C)c23)cc(OC)c1OC (centres undefined) has what Growth Rate?
0.98

Entry CCCC(=O)C1CCN(c2ncnc3c2CN(C(=O)c2ccc(-c4ccccc4)cc2)CC3)CC1 has what Growth Rate?
0.51

Entry CN1C(=O)c2c(nn(Cc3ccc(-c4cccc(F)n4)cc3)c2Nc2ccccc2)N2C1=N[C@@H]1CCC[C@@H]12.O=P(O)(O)O [LENRISPODUN PHOSPHATE] has what Growth Rate?
0.84

Entry CCOC(=O)C1=C(C)NC(C)=C(C(=O)OC)C1c1cccc([N+](=O)[O-])c1 (centres undefined) has what Growth Rate?
0.47

Entry O=C(O)Cc1cc(I)c(Oc2ccc(O)c(I)c2)c(I)c1 has what Growth Rate?
0.77

Entry O=C(NC[C@@H]1[C@H]2CN(C(=O)OCc3cc(C(F)(F)F)cc(C(F)(F)F)c3)C[C@@H]12)c1ccc2[nH]nnc2c1 has what Growth Rate?
0.88

Entry Nc1nc(-c2nn(Cc3ccccc3F)c3ncccc23)ncc1C1CC1 has what Growth Rate?
0.69

Entry Cc1nnc2ccc(-c3cccc(C(F)(F)F)c3)nn12 has what Growth Rate?
0.76

Entry CNC(=O)COc1cc2cc(Nc3nc(N4C[C@H](C)C[C@H](C)C4)ncc3Cl)ccc2n(C)c1=O has what Growth Rate?
0.85

Entry CC(C)(O)[C@H]1CC[C@H](Nc2ccc3ncc(-c4cccc(C(F)(F)F)c4)n3n2)CC1 has what Growth Rate?
0.88
